Where do these numbers come from? They come from ChEMBL document CHEMBL1255545.

biological target: Adenosine receptor A1 (Homo sapiens); experiment: Displacement of [3H]CCPA from human adenosine A1 receptor expressed in CHO cells at 10 uM; type: cell-based
Label scheme for inhibition: lower than 30% is f, 30% and above is t.

INSERT INTO results (compound, discrete_label) VALUES
  ('Nc1nc2c(cnn2CCCc2ccc(OCCc3ccccc3)cc2)c2nc(-c3ccco3)nn12', 'f'),
  ('CCOc1ccc(CCCn2ncc3c2nc(N)n2nc(-c4ccco4)nc32)cc1', 'f'),
  ('Nc1nc2c(cnn2CCCc2ccc(OCCF)cc2)c2nc(-c3ccco3)nn12', 't'),
  ('CCC(C)Oc1ccc(CCCn2ncc3c2nc(N)n2nc(-c4ccco4)nc32)cc1 (stereo not drawn)', 'f'),
  ('CS(=O)(=O)OCCOc1ccc(CCCn2ncc3c2nc(N)n2nc(-c4ccco4)nc32)cc1', 'f'),
  ('COc1ccc(CCCn2ncc3c2nc(N)n2nc(-c4ccco4)nc32)cc1', 't'),
  ('Nc1nc2c(cnn2CCCc2ccc(O/C=C/c3ccccc3)cc2)c2nc(-c3ccco3)nn12', 'f'),
  ('C=CCCOc1ccc(CCCn2ncc3c2nc(N)n2nc(-c4ccco4)nc32)cc1', 'f');
